target: Human recombinant COX-2 (Homo sapiens, UniProt P35354); experiment: Pulsed ultrafiltration LC-MS-MS screening for COX-2 ligands; type: binding; conditions: bound/free ratio = (pulsed ultrafiltration peak area)/(peak area washing buffer)
Sequence (P35354 18-604): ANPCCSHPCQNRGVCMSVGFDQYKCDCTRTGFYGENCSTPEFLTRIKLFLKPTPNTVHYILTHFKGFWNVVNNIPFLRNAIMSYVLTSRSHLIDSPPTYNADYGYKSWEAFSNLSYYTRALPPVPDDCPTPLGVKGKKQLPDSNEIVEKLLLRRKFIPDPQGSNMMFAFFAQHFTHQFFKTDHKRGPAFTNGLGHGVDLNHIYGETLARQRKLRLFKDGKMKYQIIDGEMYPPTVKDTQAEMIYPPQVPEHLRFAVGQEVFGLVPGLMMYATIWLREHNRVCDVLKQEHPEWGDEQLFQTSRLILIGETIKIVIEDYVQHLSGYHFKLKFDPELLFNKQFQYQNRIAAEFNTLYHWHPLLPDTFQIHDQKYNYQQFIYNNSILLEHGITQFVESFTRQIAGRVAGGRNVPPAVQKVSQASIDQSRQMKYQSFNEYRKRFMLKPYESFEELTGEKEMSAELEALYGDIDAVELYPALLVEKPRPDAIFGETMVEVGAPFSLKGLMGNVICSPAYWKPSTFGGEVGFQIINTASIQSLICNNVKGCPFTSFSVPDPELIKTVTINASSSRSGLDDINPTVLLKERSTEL
The following compounds are shown together with reported Relative binding to COX-2 values.

[
  {
    "compound": "CCCCC/C=C/C(=O)CCc1ccc(O)c(OC)c1",
    "Relative binding to COX-2": 0
  },
  {
    "compound": "CCCCCCC/C=C/[C@H](O)CC(=O)CCc1ccc(O)c(OC)c1 [6-dehydro-10-gingerol]",
    "Relative binding to COX-2": "0.15 ± 0.01"
  },
  {
    "compound": "CCCCC[C@H](O)C[C@H](O)CCc1ccc(O)c(OC)c1",
    "Relative binding to COX-2": 0
  },
  {
    "compound": "CCCCCCCCCCCC(=O)CCc1ccc(O)c(OC)c1",
    "Relative binding to COX-2": 0
  },
  {
    "compound": "CCCCC/C=C/[C@H](O)CC(=O)CCc1ccc(O)c(OC)c1 [6-dehydro-8-gingerol]",
    "Relative binding to COX-2": 0
  },
  {
    "compound": "CCCCCCC/C=C/C(=O)CCc1ccc(O)c(OC)c1",
    "Relative binding to COX-2": "0.27 ± 0.02"
  },
  {
    "compound": "CCCCC[C@H](O)CC(=O)CCc1ccc(O)c(OC)c1",
    "Relative binding to COX-2": 0
  },
  {
    "compound": "CCCCCCCCC[C@H](O)CC(=O)CCc1ccc(O)c(OC)c1",
    "Relative binding to COX-2": "0.17 ± 0.03"
  },
  {
    "compound": "CCCCCCC[C@H](O)CC(=O)CCc1ccc(O)c(OC)c1",
    "Relative binding to COX-2": 0
  },
  {
    "compound": "CCCCCCCCCC(=O)CCc1ccc(O)c(OC)c1",
    "Relative binding to COX-2": "0.70 ± 0.02"
  },
  {
    "compound": "CCCCCCCCCCC/C=C/C(=O)CCc1ccc(O)c(OC)c1",
    "Relative binding to COX-2": 0
  },
  {
    "compound": "CCCCCCCC(O)CC(O)CCc1ccc(O)c(OC)c1 (centres unmarked)",
    "Relative binding to COX-2": 0
  },
  {
    "compound": "CCCCCCCCC/C=C/C(=O)CCc1ccc(O)c(OC)c1",
    "Relative binding to COX-2": "0.35 ± 0.03"
  },
  {
    "compound": "CCCCCCCCCCC[C@H](O)CC(=O)CCc1ccc(O)c(OC)c1",
    "Relative binding to COX-2": "0.23 ± 0.01"
  },
  {
    "compound": "CCCCCCCCCC(=O)CC(=O)CCc1ccc(O)c(OC)c1",
    "Relative binding to COX-2": "0.24 ± 0.05"
  },
  {
    "compound": "CCCCCCCC(=O)CC(=O)CCc1ccc(O)c(OC)c1",
    "Relative binding to COX-2": "0.20 ± 0.03"
  },
  {
    "compound": "CCCCCC(=O)CC(=O)CCc1ccc(O)c(OC)c1",
    "Relative binding to COX-2": "0.23 ± 0.02"
  }
]

Reference source: paper PMC3018740
